Values compiled from patent US20240425478A1.

Molecular target: Cyclin Dependent Kinase 2/Cyclin E1 (CDK2-cycE1) (Homo sapiens, UniProt P24941)
Construct: purchased ProQinase 0050-0055-1
Test: CDK2-cycE1 TR-FRET (LANCE) enzyme assay
Type: biochemical
Details: Table O, enzymatic assay; read-out: CDK2 Ki
RECORDED METRIC: pKi
Answers are plain numbers, as −log10 of the molar value.

Consider the worked cases shown below.
{"SMILES INPUT": "CC1(NC(=O)O[C@@H]2CC[C@H](c3cc(Nc4cccnn4)n[nH]3)C2)CC1", "TEST VALUE": 8.60}
{"SMILES INPUT": "CN(C)Cc1ccc(Nc2cc([C@H]3CC[C@@H](OC(=O)NC45CC(C4)C5)C3)[nH]n2)cn1", "TEST VALUE": 8.72}
{"SMILES INPUT": "CC(C)NC(=O)O[C@@H]1CC[C@H](c2cc(Nc3ccn(C)c(=O)c3)n[nH]2)C1", "TEST VALUE": 7.77}
{"SMILES INPUT": "Cn1c(Nc2cc([C@H]3CC[C@@H](OC(=O)NC(C)(C)C)C3)[nH]n2)ccnc1=O", "TEST VALUE": 6.57}
{"SMILES INPUT": "COc1cncc(Nc2cc([C@H]3CC[C@@H](OC(=O)NC(C)C)C3)[nH]n2)n1", "TEST VALUE": 9.31}

Query pKi for `Cc1cnc(Nc2cc([C@H]3CC[C@@H](OC(=O)NC(C)C)C3)[nH]n2)c(C)n1`
9.04

---

Target: Cyclin Dependent Kinase 2/Cyclin E1 (CDK2-cycE1) (Homo sapiens, UniProt P24941)
Construct: purchased ProQinase 0050-0055-1
Assay: CDK2-cycE1 TR-FRET (LANCE) enzyme assay
Assay type: biochemical
Details: Table Q, fold selectivity, enzymatic
I'd be grateful if you could share measured FS CDK4/CDK2 for these entries.
Give bare numbers.

{"SMILES INPUT": "CC(C)NC(=O)O[C@@H]1CC[C@H](c2cc(Nc3ccc(=O)n(C)n3)n[nH]2)C1", "TEST VALUE": 550}
{"SMILES INPUT": "Cc1cncc(Nc2cc([C@H]3CC[C@@H](OC(=O)NC(C)C)C3)[nH]n2)c1", "TEST VALUE": 110}
{"SMILES INPUT": "CC(C)NC(=O)O[C@@H]1CC[C@H](c2cc(Nc3ccnc(N)n3)n[nH]2)C1", "TEST VALUE": 100}
{"SMILES INPUT": "COc1nc(C)ncc1Nc1cc([C@H]2CC[C@@H](OC(=O)NC(C)C)C2)[nH]n1", "TEST VALUE": 230}
{"SMILES INPUT": "CC(C)NC(=O)O[C@@H]1CC[C@H](c2cc(Nc3ccc(-n4ccnc4)cn3)n[nH]2)C1", "TEST VALUE": 59}
{"SMILES INPUT": "CC(C)NC(=O)O[C@@H]1CC[C@H](c2cc(Nc3ccncn3)n[nH]2)C1", "TEST VALUE": 86}

Provide FS CDK4/CDK2 values for the following items, in order.
1. Cc1ncc(Nc2cc([C@H]3CC[C@@H](OC(=O)NC(C)C)C3)[nH]n2)c(C)n1
2. Cc1cnc(Nc2cc([C@H]3CC[C@@H](OC(=O)NC(C)C)C3)[nH]n2)c(C)n1
3. Cc1ncncc1Nc1cc([C@H]2CC[C@@H](OC(=O)NC(C)C)C2)[nH]n1
4. CC(C)NC(=O)O[C@@H]1CC[C@H](c2cc(Nc3ccn(C)c(=O)c3)n[nH]2)C1
5. CC(C)NC(=O)O[C@@H]1CC[C@H](c2cc(Nc3cnccn3)n[nH]2)C1
6. Cc1cc(=O)n(C)cc1Nc1cc([C@H]2CC[C@@H](OC(=O)NC(C)C)C2)[nH]n1
7. CC(C)NC(=O)O[C@@H]1CC[C@H](c2cc(Nc3cc(=O)[nH]cn3)n[nH]2)C1
8. CC(C)NC(=O)O[C@@H]1CC[C@H](c2cc(Nc3ccnc(C(F)(F)F)n3)n[nH]2)C1

1. 74
2. 280
3. 120
4. 26
5. 57
6. 13
7. 390
8. 650

Query FS CDK4/CDK2 for `Cc1nc(C#N)ccc1Nc1cc([C@H]2CC[C@@H](OC(=O)NC(C)C)C2)[nH]n1`
260
